- procedure.summary: recombinant barcode read abundance after kanamycin selection (control-corrected) (log10(CPM+1)); higher = more efficient recombination; sequences stand for … in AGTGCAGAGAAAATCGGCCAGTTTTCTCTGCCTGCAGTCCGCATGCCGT…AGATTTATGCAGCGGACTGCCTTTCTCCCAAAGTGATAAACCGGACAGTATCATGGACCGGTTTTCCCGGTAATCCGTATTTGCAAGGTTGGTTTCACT; site = the 11-nt target;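 note: IS621 recombinase and bridge RNA in Escherichia coli cells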
measured.attribute: recombinant barcode read abundance (log10)
A bare number is all that is needed in reply.

Here is how some sequences turned out for recombinant barcode read abundance (log10).
residue.string	measured.number
ACAGAATCTTGGGTTCTAACCTGTTGCCT (site ACAGAATCTAG)	1.69
CGATACACTTGGGTTCTAACCTGTTGCCG (site CGATACACTCG)	0.571
TGGCATCCTTGGGTTCTAACCTGTTGCGT (site TGGCATCCTAC)	2.53
GTAAGTGCTTGGGTTCTAACCTGTTGCCT (site GTAACTGCTAG)	0.0692
TAGTTAGCTTGGGTTCTAACCTGTTGCCG (site TAGTTAGCTGG)	0.00835

Item: AGGTCAACTTGGGTTCTAACCTGTTGCCG (site TAAGGTCCTAA) | recombinant barcode read abundance (log10): 0.0279

Item: AGATTTCCTTGGGTTCTAACCTGTTGCAT (site CATCCGACTGA) | recombinant barcode read abundance (log10): 0.0339

Item: TGGTATCCTTGGGTTCTAACCTGTTGCCT (site TGGTATGCTAG) | recombinant barcode read abundance (log10): 0.396

Item: GCCTCTTCTTGGGTTCTAACCTGTTGCCT (site GCCTCTTCTAG) | recombinant barcode read abundance (log10): 0.426

Item: CCATGGACTTGGGTTCTAACCTGTTGCCT (site CCATGGACTAG) | recombinant barcode read abundance (log10): 0.252

Item: CATTTCACTTGGGTTCTAACCTGTTGCCT (site GCCCATGCTCC) | recombinant barcode read abundance (log10): 0.0522

Item: GACACCTCTTGGGTTCTAACCTGTTGCTT (site GACACGTCTAG) | recombinant barcode read abundance (log10): 0.461

Item: TACAGTACTTGGGTTCTAACCTGTTGCCT (site AACAGTACTAG) | recombinant barcode read abundance (log10): 0.0317

Item: ACCCATTCTTGGGTTCTAACCTGTTGCGT (site ACCCATTCTAC) | recombinant barcode read abundance (log10): 2.29

Item: AAGACATCTTGGGTTCTAACCTGTTGCTT (site TAGACATCTAT) | recombinant barcode read abundance (log10): 0.24

Item: AATGGGTCTTGGGTTCTAACCTGTTGCTT (site AATGGGTCTAA) | recombinant barcode read abundance (log10): 1.71

Item: AGGACGACTTGGGTTCTAACCTGTTGCCT (site AGCGCGACTAG) | recombinant barcode read abundance (log10): 0.0505

Item: GTGTACCCTTGGGTTCTAACCTGTTGCGG (site GTGTACCCTTC) | recombinant barcode read abundance (log10): 0.253

Item: ACGTGAACTTGGGTTCTAACCTGTTGCCT (site ACGTGAACTAG) | recombinant barcode read abundance (log10): 0.416

Item: TCAGAGCCTTGGGTTCTAACCTGTTGCTG (site TCAAAGCCTCA) | recombinant barcode read abundance (log10): 0.025

Item: AGTTGGGCTTGGGTTCTAACCTGTTGCTG (site AGTTGGGCTCA) | recombinant barcode read abundance (log10): 1.02

Item: CATTAGACTTGGGTTCTAACCTGTTGCCT (site CATTAGACTAG) | recombinant barcode read abundance (log10): 0.423

Item: ATAGCAACTTGGGTTCTAACCTGTTGCCT (site ATAGCAACTAG) | recombinant barcode read abundance (log10): 0.64

Item: TACCAGACTTGGGTTCTAACCTGTTGCCT (site TACCTGACTAG) | recombinant barcode read abundance (log10): 0.0512
